Recorded eff. (efficiency %), cytotoxic effect on Mia PaCa-2 cells by entry
Target: TRAILR2 receptor on the surface of human tumor cells (human, UniProt O14763 56-440)
Assay: cell-based or functional assay
# value in %; strip the unit string

BINDER: Zaptuzumab (antibody, V domains shown) VH: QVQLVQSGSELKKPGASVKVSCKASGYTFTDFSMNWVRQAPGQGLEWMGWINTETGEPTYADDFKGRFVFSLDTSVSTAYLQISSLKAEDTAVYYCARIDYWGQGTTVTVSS VL: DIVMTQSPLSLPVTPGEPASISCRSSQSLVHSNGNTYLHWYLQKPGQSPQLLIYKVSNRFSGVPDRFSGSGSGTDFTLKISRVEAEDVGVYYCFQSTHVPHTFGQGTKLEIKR
REPORTED_VALUE: 27.5

q: Give reported eff. (efficiency %), cytotoxic effect on Mia PaCa-2 cells value for Zapadcine-1b (antibody, V domains shown, MMAD coupled through linker Mc-Vc-PAB by thiol conventional coupling, cleavable; positions not given) VH: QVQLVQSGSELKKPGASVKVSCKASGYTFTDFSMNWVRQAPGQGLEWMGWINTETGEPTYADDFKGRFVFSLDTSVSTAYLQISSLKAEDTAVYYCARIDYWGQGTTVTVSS VL: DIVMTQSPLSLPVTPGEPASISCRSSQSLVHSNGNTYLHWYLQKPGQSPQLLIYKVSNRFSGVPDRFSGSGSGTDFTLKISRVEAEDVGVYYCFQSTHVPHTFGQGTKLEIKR
a: 86.8

Value source: patent US20200407457A1
